Hey, just so you know, these numbers are from PubChem BioAssay AID493192.

assay: qHTS Assay for Identifying a Potential Treatment of Ataxia-Telangiectasia: Hit Validation;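 also: phospho-KAP1 level by AlphaLISA as a proxy for ATM-like kinase activity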; also: potency is read from the fitted curve at half-maximal effect
experimental.conditions: Ataxia-telangiectasia cell-based hit validation qHTS, in ATM-null A-T patient fibroblasts; series mostly up to 76.9 µM
Records with an inconclusive call do not appear. Activity calls are given as the source filed them. Calls follow the shape of the dose curve; as a rule, active = well fitted activation curve with a large enough effect; inconclusive = small, poorly fitted or top-dose-only effect; inactive = no such curve, though single readings can be large or run the other way.
readout: Potency

compound="OC(COC(c1ccc(F)cc1)c1ccc(F)cc1)CN1CCCC1 (stereo not given)" value_measured=inactive
compound=CC1=C/C(=C\C=C(C#N)C#N)N(C)c2ccccc21 value_measured=inactive
compound=COCCNC(=O)c1c(N)n(-c2cccc(C)c2)c2nc3ccccc3nc12 value_measured="41.2 µM (active)"
compound=COc1ccc(CCNC(=O)C2CCN(S(=O)(=O)c3ccc(OC)c(OC)c3)CC2)cc1OC value_measured=inactive
compound=Cn1cc(/C=N/NC(N)=S)c2ccccc21 value_measured=inactive
compound=CCCN1CN(c2ccccc2)C(=S)N(c2ccccc2)C1 value_measured=inactive
compound=CC(C)NC(=O)c1ccc(COc2ccc(C(C)(C)C)cc2)o1 value_measured=inactive
compound=CCN1CCN(c2oc(COc3ccc(Cl)cc3)nc2C#N)CC1 value_measured=inactive
compound=O=C(c1ccc(F)cc1)c1ccc(N2CCCCC2)cc1 value_measured="29.2 µM (active)"
compound="CC1=NOC2(C1)N(C)c1ccccc1C2(C)C (stereo not given)" value_measured=inactive
compound=CCN(CC)S(=O)(=O)c1ccc(Cl)c(NC(=O)CCCCl)c1 value_measured=inactive
compound=O=C(CNCc1cccs1)Nc1cc(S(=O)(=O)N2CCCC2)ccc1Cl value_measured=inactive
compound=COc1ccc(N(CCC#N)C(=O)/C(C#N)=C\c2cccs2)cc1 value_measured=inactive
compound=O=C(NC12CC3CC(CC(C3)C1)C2)c1cccc(OC(F)F)c1 value_measured=inactive
compound=COc1ccccc1S(=O)(=O)Nc1ccc(-c2nnc3n2CCCCC3)cc1 value_measured=inactive
compound=CN(C)Cc1ccc(F)cc1Sc1cc(Cl)ccc1Cl value_measured=inactive
compound=CNC(=O)c1ccc(-c2sc3nc(N4CCOCC4)c4c(c3c2N)CC(C)(C)OC4)o1 value_measured="29.2 µM (active)"
compound=Cc1ccnc(NC(=O)c2ccccc2NC(=O)c2ccccc2)c1 value_measured=inactive
compound=O=C(CN1CCN(Cc2ccccc2)CC1)Nc1ccc(Cl)cc1 value_measured=inactive
compound=COc1ccc(-n2c(=S)[nH]c3ccccc3c2=S)cc1 value_measured=inactive
compound=Oc1cccc(NC(=S)N=Nc2c(O)[nH]c3ccccc23)c1 value_measured=inactive
compound="C/C(CCC1CC(C)OC1=O)=N\\NC(N)=S (stereo not given)" value_measured=inactive
compound="CC1CCCC(C)N1CCCNC(=O)Cn1ncc2c3ccccc3n(C)c2c1=O (stereo not given)" value_measured="23.2 µM (active)"
compound="CCC(C)NC(=O)c1cn(CCOC)c(=O)c2c1c1ccccc1n2C (stereo not given)" value_measured=inactive
compound=CNC(=O)c1ccc(-c2cc3onc(-c4ccccc4)c3c(=O)n2C)cc1 value_measured=inactive
compound=CCN(CC)c1ccc2c(Cl)c(Br)c(=O)oc2c1 value_measured="36.8 µM (active)"
compound=CSc1nc2ccccc2nc1N(C)S(=O)(=O)c1ccc(C)cc1 value_measured="58.2 µM (active)"
compound=O=C(CCC(=O)c1ccc(F)cc1)Nc1cccc(Br)c1 value_measured=inactive
compound="OC(CN1CCCCC1)Cn1c2ccc(Cl)cc2c2cc(Cl)ccc21 (stereo not given)" value_measured=inactive
compound="CCS(=O)(=O)N1Cc2ccccc2CC1C(=O)Nc1cccc(OC)c1 (stereo not given)" value_measured=inactive
compound=Cc1ccc(C(=O)c2c(C)oc3c2C(=O)C(=O)c2ccccc2-3)cc1 value_measured="26 µM (active)"
compound="CC1=NN(C(C#N)c2ccc([N+](=O)[O-])cc2)C(C)(C)C1 (stereo not given)" value_measured=inactive
compound=CCCCn1c2c(c(=N)c3ccccc31)CCC2 value_measured=inactive
compound=CCOC(=O)Cn1c(-c2ccccc2)cc(SC)c(C#N)c1=O value_measured=inactive
compound=COc1ccc(-c2nn(C)c(=O)[nH]2)cc1 value_measured=inactive
